target.entity: human serum albumin (Homo sapiens, UniProt P02768)
Sequence (P02768 25-609): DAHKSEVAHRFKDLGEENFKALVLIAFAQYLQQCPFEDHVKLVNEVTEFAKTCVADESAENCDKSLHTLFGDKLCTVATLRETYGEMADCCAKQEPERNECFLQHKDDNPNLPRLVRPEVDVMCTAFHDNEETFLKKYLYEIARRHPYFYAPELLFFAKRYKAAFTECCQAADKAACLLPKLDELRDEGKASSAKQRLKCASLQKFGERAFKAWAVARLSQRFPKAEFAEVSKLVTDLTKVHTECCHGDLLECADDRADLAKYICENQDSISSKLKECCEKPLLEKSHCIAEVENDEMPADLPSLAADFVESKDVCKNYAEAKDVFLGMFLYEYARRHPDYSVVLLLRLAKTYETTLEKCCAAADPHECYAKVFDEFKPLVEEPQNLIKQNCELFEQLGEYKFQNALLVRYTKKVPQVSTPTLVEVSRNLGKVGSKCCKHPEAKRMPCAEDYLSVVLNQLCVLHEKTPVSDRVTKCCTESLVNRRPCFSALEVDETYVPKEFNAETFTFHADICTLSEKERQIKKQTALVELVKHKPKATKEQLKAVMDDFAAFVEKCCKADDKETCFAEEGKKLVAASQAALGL
measurement.parameters: binding percentage to human serum albumin, biomimetic column; ± RSD (%)
endpoint: PPBHSA (%)
Respond with the bare value in %.

**Q:** I'd like to know its PPBHSA (%). The compound in question is O=C(O)CCNC(=O)c1ccc(/N=N/c2ccc(O)c(C(=O)O)c2)cc1 [BSZ, balsalazide]
**A:** 91.64

**Q:** I'd like to know its PPBHSA (%). The compound in question is `Nc1ccc(O)c(C(=O)O)c1`
**A:** 61.44

**Q:** I'd like to know its PPBHSA (%). The compound in question is `O=C(O)c1cc(/N=N/c2ccc(O)c(C(=O)O)c2)ccc1O`
**A:** 96.00

**Q:** I'd like to know its PPBHSA (%). The compound in question is `Nc1nc2ncc(CNc3ccc(C(=O)N[C@@H](CCC(=O)O)C(=O)O)cc3)nc2c(=O)[nH]1`
**A:** 69.40
